System: SF-268
Assay Overview: NCI tumour cell line growth inhibition, 48 h
Calls of active or inactive are those of the source. Cut-off read from the data, not from the text of the source: active = GI50 up to about 1.1 µM and inactive = higher.
Overview of reported GI50 across a group of molecules:

| Molecule | GI50 |
| --- | --- |
| O=C(NNC(=O)c1csc(NC(=S)NC2CCCCC2)n1)c1ccccc1 | 5.66 µM (inactive) |
| C=C1CC(C)(COc2cc(=O)oc3ccccc23)OC1=O (stereo unspecified) | 14.9 µM (inactive) |
| C=C(Br)CNC(=O)Nc1ccc(Cl)c(Cl)c1 | 27.3 µM (inactive) |
| OCc1cc2ccncc2c2c1[nH]c1ccccc12 | 4.66 µM (inactive) |
| COc1ccc(-c2csc(Cc3nc4ccccc4c(=O)n3-c3ccc(Cl)cc3)n2)cc1 | 27.5 µM (inactive) |
| COc1ccc(N)c(C(=O)CCNC(C)=O)c1 | > 100 µM (inactive) |

* * *

Test system: HT-29
Assay Overview: NCI tumour cell line growth inhibition, 48 h
Activity calls are given as the source filed them. Cut-off read from the data, not from the text of the source: active = GI50 up to about 1.1 µM and inactive = higher.
Outcomes: active, inactive

| Molecule | Group Label |
| --- | --- |
| C/C(=N/NC(=S)N(C)CCc1ccccn1)c1cnccn1 | active |
| CC(=O)Nc1ccc(C2CC(c3ccc([N+](=O)[O-])cc3)=Nc3ccccc3[S+]2[O-])cc1 (centres undefined) | inactive |
| CC(=O)N/N=C1\NC(=O)C[C@H]2[C@@H]3CC=C4C[C@@H](OC(C)=O)CC[C@]4(C)[C@H]3CC[C@]12C | inactive |
| O=C1C=CC(=O)c2c1ccc1c3ccccc3n(CCCCCCCCn3c4ccccc4c4ccc5c(c43)C(=O)C=CC5=O)c21 | inactive |

* * *

Test system: KM12
Assay Overview: NCI tumour cell line growth inhibition, 48 h
The source made the active and inactive calls. No stated cut-off is given here; in the data, active = GI50 up to about 1.1 µM and inactive = higher.
Outcomes: active, inactive

| Molecule | Group Label |
| --- | --- |
| Cc1ccc(NC(=O)C(=O)CC(=O)c2ccccc2)cc1C | inactive |
| COc1cc(C2c3cc4c(cc3OC(N3CCOCC3)C2C)OCO4)cc(OC)c1OC (stereo not given) | active |
| COC(=O)C(CCC1C=CCC1)/N=C\c1ccccc1 (stereo not given) | inactive |
| O=C1C=CC(=O)c2c1ccc1c3ccccc3n(CCCCCCCCn3c4ccccc4c4ccc5c(c43)C(=O)C=CC5=O)c21 | inactive |
| COC(=O)C(=O)C(C(=O)C1=NS(=O)(=O)c2cc(S(N)(=O)=O)c(Cl)cc2N1)c1nc2ccc(C(=O)c3ccccc3)cc2nc1O (stereo not given) | inactive |
| O=C(NNC(=O)c1ccccc1O)c1cccs1 | inactive |
| O=C1CCC(C(=O)O)C2=C1CCCC2 (stereo not given) | inactive |
| COc1cc(S(=O)(=O)N/N=C/c2cc(Br)c(O)c(OC)c2)c(OC)cc1NC(C)=O | inactive |
| CN1CCCCC(C(O)(c2ccccc2)c2ccccc2)C1=O (stereo not given) | inactive |
| COC[C@@H](/N=C/c1ccc(OC)cc1)C(C)C | inactive |

* * *

Tested on: LOX IMVI
Assay Overview: NCI tumour cell line growth inhibition, 48 h
Calls of active or inactive are those of the source. Rule as the data show it: active = GI50 up to about 1.1 µM and inactive = higher. Square brackets hold non-standard residues; d marks the D form. Peptide text beside a SMILES is read from it. * marks the point of attachment. X26 = COC1=CC(=O)N(C(=O)[C@@H](O*)C(C)C)[C@H]1Cc1ccccc1; NMeV = CN[C@H](C(=O)O)C(C)C; Hexanoyl = CCCCCC(=O)*
Outcomes: active, inactive

| Compound | Group Label |
| --- | --- |
| CCc1cc(-c2nsc(=O)o2)c(S(=O)(=O)CC)s1 | inactive |
| Clc1ccc(C2=NN(c3ccccc3)C3c4cc(Br)ccc4OCC23)cc1 (configuration not stated) | inactive |
| Clc1cc(OCc2nn3c(Cc4ccccc4)nnc3s2)ccc1OCc1nn2c(Cc3ccccc3)nnc2s1 | inactive |
| N#Cc1cc(-c2nc3ccc(F)cc3s2)ccc1N | inactive |
| COC(=O)C1CC2c3c(c4ccccc4n3C)CC(C1=O)N2C (configuration not stated) | inactive |
| N=C(N)NS(=O)(=O)c1ccc(Nc2c3ccccc3nc3c(C(=O)Nc4ccc(S(N)(=O)=O)cc4)ccc(Cl)c23)cc1 | inactive |
| COc1cc(-c2cc(=O)c3cc4c(cc3[nH]2)OCO4)cc(OC)c1O | inactive |
| Cc1ccccc1-n1c(N)c(-c2nc3ccccc3[nH]2)sc1=S | inactive |
| C#CC(O)/C=C/C(O)CCCC(O)CC#CC(O)C#CCCCCC(O)/C=C/CCCC(O)/C=C/CCCCCCCCCCCCCC(O)C(O)C#CC(=O)O (configuration not stated) | inactive |
| O=S1(=O)OCCOS(=O)(=O)C1(Br)Cc1ccccc1 | inactive |
| COc1cccc2c1C(=O)c1c(O)c3c(c(O)c1C2=O)C[C@@](O)(C(=O)CO)C[C@@H]3OC1CC(N2CCOCC2C#N)C(O)C(C)O1 (some centres not stated) | active |
| O=C(Nc1ccc(Cl)cc1Cl)C(=O)C(C(=O)c1ccncc1)C1OC(=O)c2ccccc21 (configuration not stated) | inactive |
| Cc1ccc(S(=O)(=O)NNC(=O)c2cc(C)ccc2NC(=O)C23CC4CC(CC(C4)C2)C3)cc1 | inactive |
| C=C[C@H]1CN2CCc3c([nH]c4cc(O)ccc34)[C@@H]2C[C@@H]1C[C@H]1c2[nH]c3ccccc3c2CCN1C | inactive |
| COC1(O)C(=O)c2ccccc2OC1(OC)c1ccccc1 (configuration not stated) | inactive |
| CC(=O)OCC1OC(NC(=S)Nn2c(-c3ccccc3)nc3ccccc3c2=O)C(OC(C)=O)C(OC(C)=O)C1OC(C)=O (configuration not stated) | inactive |
| CC(O)CC(O)(C(F)(F)F)C(F)(F)F (configuration not stated) | inactive |
| CCN(CC)c1c(C(=O)/C=C/c2ccc(OC)cc2)c(-c2ccccc2)nn(C)c1=O | inactive |
| NC(=O)NNc1nc(-c2ccccc2)cs1 | inactive |
| COc1ccc2c(C)cc(N/N=C/c3ccc(C)s3)nc2c1 | inactive |
| NNC(=S)N/N=C(\c1nc2ccc(Cl)cc2nc1O)C(O)c1ccc(Cl)cc1Cl (configuration not stated) | inactive |
| CC(C)N1CN(C(C(=O)N[C@@H]2C(=O)N3C2SC(C)(C)C3C(=O)O)c2ccc(O)cc2)CSC1=S (some centres not stated) | inactive |
| CC1OC(O[C@H]2CC[C@]3(C)[C@H]4CC=C5[C@@H]6[C@@H](C)[C@H](C)CC[C@]6(C(=O)O)CC[C@@]5(C(=O)O)[C@]4(C)CC[C@H]3C2(C)C)C(O)C(O)C1O (some centres not stated) | inactive |
| Cc1c2cc[n+]([O-])cc2c(C)c2c1[nH]c1ccccc12 | inactive |
| COc1c(C(=O)/C(=N/Nc2ccccc2)C(C)=O)c(O)c(OC)c2occc12 | inactive |
| CCCCCC(=O)N[C@H](C(=O)N[C@H](C(=O)N(C)[C@H](C(=O)N1CCC[C@H]1C(=O)N1CCC[C@H]1C(=O)O[C@H](C(=O)N1C(=O)C=C(OC)[C@@H]1Cc1ccccc1)C(C)C)C(C)C)C(C)C)C(C)C (Hexanoyl-VV[NMeV]PP-X26) | inactive |
| c1ccc2c(c1)c1ccccc1n2Cn1c2ccccc2c2ccccc21 | inactive |
| CC(C)c1cc(C(C)C)c(S(=O)(=O)N=[N+]=[N-])c(C(C)C)c1 | inactive |
| CN(C)S(=O)(=O)/N=C/c1cccc(/C=N/S(=O)(=O)N(C)C)c1 | inactive |
| c1ccc(CN2CCCN3CCN(CCCN(Cc4ccccc4)CC3)CC2)cc1 | inactive |
| CN(C)NC1=NS(=O)(=O)c2cc3c(=O)n(C)[nH]c3cc2S1 | inactive |
| COc1ccc(-c2csc(Cc3nc4ccccc4c(=O)n3-c3ccc(Cl)cc3)n2)cc1 | inactive |
| COc1cc(C2c3[nH]c4ccccc4c3[C@@H](Nc3ccc(C#N)cc3)[C@H]3COC(=O)N23)cc(OC)c1O (some centres not stated) | active |
| Cc1ccc(S(=O)(=O)NC(=O)NC(Cc2c[nH]c3ccccc23)C(=O)O)cc1 (configuration not stated) | inactive |
| CN(C)c1ccc(/C=c2/c3ccccc3n3c2cc(C24CC5CC(CC(C5)C2)C4)[n+]3C)cc1 | active |
| CN(C)Cc1ccc(-c2cc3onc(-c4ccccc4)c3c(=O)n2C)cc1 | inactive |
| Cc1nnc2n1-c1ccccc1N(Cc1ccccc1)CC2 | inactive |

* * *

Tested on: DU-145
Assay Overview: NCI tumour cell line growth inhibition, 48 h
The source made the active and inactive calls. Cut-off read from the data, not from the text of the source: active = GI50 up to about 1.1 µM and inactive = higher.
Attribute Measured: GI50

| Molecule | Tested Target | Value Measured |
| --- | --- | --- |
| O=C(/C=C/c1ccc(F)c(F)c1)OCCc1ccccc1 | DU-145 | > 100 µM (inactive) |
| CCCCN/N=N/c1cn(C2OC(CO)C(O)C2O)c(=O)[nH]c1=O (centres undefined) | DU-145 | > 100 µM (inactive) |
| Cc1ccc(-c2cc(N)n(-c3nc4c([nH]3)c(=O)n(C)c(=O)n4C)n2)cc1 | DU-145 | 6.35 µM (inactive) |
| O=C1CCC(C(=O)O)C2=C1CCCC2 (centres undefined) | DU-145 | > 100 µM (inactive) |
| CC(C)(CCC(C)(C)N1OC1c1ccccc1)N1OC1c1ccccc1 (centres undefined) | DU-145 | 88.7 µM (inactive) |
| CC(C)CCC[C@@H](C)[C@H]1CCC2C3CC=C4C[C@@H](Oc5c6ccccc6nc6ccccc56)CCC4C3CCC21 (some centres undefined) | DU-145 | > 50 µM (inactive) |
| Cc1ncc2c(=O)c3c(oc2n1)c1ccccc1n3Cc1ccccc1 | DU-145 | > 100 µM (inactive) |
| O=C1C=CC(=O)N1c1ccc2c(c1)Cc1cc(NC(=O)C(F)(F)F)ccc1-2 | DU-145 | 16 µM (inactive) |
| CC(C)(C)c1cc(C2NCCO2)cc(C(C)(C)C)c1O (centres undefined) | DU-145 | > 100 µM (inactive) |
| S=c1[nH]c(Cl)cc2nc(Cl)cn12 | DU-145 | 5.01 µM (inactive) |
| CC(CC=O)Nc1nn2c(=O)c3ccccc3nc2s1 (centres undefined) | DU-145 | > 100 µM (inactive) |
| CCN(CC)CCN(/C(=N/c1ccccc1)N1CCCCC1)c1ccccc1 | DU-145 | 20.2 µM (inactive) |
| CC(N)/C(N)=N/O (centres undefined) | DU-145 | > 100 µM (inactive) |
| CC(=O)OCC1OC(NC(=S)Nn2c(-c3ccccc3)nc3ccccc3c2=O)C(OC(C)=O)C(OC(C)=O)C1OC(C)=O (centres undefined) | DU-145 | > 100 µM (inactive) |
